Reference source: ChEMBL document CHEMBL3804797

# assay.target: Sodium channel protein type 9 subunit alpha (Mus musculus, UniProt Q62205)
# assay.overview: Inhibition of Nav1.7 channel in mouse CAD cells by whole-cell patch clamp assay
reported.property: IC50 (nM)
Numeric answer only, unit nM assumed.

GET IC50 where system = Sodium channel protein type 9 subunit alpha (Mus musculus, UniProt Q62205) and item = Nc1noc2ccc(-c3cc(Cl)ccc3Oc3cc(F)c(S(=O)(=O)Nc4ncns4)cc3F)cc12
0.2

----------
# assay.overview: Apparent permeability from apical to basolateral side in MDCK1 cells at 10 uM incubated for 2 hrs
# Assay type: ADME, cell-based, Canis lupus familiaris
# condition.label: dog, MDCK
reported.property: Papp A→B at 2 h, 10 µM
# number then unit; no other words

Give Papp A→B at 2 h, 10 µM for Nc1noc2ccc(-c3cc(Cl)ccc3Oc3cc(F)c(S(=O)(=O)Nc4ncns4)cc3F)cc12
2.1 ×10⁻⁶ cm/s

----------
# assay.overview: Dissociation constant, pKa of the compound at 100 uM by UV-spectrophotometric titration method
# Assay type: physicochemical
reported.property: pKa at 100 µM

Give pKa at 100 µM for Nc1noc2ccc(-c3cc(Cl)ccc3Oc3cc(F)c(S(=O)(=O)Nc4ncns4)cc3F)cc12
3.2

----------
# assay.target: Sodium channel protein type 8 subunit alpha (Homo sapiens, UniProt Q9UQD0)
# Sequence (Q9UQD0 whole entry): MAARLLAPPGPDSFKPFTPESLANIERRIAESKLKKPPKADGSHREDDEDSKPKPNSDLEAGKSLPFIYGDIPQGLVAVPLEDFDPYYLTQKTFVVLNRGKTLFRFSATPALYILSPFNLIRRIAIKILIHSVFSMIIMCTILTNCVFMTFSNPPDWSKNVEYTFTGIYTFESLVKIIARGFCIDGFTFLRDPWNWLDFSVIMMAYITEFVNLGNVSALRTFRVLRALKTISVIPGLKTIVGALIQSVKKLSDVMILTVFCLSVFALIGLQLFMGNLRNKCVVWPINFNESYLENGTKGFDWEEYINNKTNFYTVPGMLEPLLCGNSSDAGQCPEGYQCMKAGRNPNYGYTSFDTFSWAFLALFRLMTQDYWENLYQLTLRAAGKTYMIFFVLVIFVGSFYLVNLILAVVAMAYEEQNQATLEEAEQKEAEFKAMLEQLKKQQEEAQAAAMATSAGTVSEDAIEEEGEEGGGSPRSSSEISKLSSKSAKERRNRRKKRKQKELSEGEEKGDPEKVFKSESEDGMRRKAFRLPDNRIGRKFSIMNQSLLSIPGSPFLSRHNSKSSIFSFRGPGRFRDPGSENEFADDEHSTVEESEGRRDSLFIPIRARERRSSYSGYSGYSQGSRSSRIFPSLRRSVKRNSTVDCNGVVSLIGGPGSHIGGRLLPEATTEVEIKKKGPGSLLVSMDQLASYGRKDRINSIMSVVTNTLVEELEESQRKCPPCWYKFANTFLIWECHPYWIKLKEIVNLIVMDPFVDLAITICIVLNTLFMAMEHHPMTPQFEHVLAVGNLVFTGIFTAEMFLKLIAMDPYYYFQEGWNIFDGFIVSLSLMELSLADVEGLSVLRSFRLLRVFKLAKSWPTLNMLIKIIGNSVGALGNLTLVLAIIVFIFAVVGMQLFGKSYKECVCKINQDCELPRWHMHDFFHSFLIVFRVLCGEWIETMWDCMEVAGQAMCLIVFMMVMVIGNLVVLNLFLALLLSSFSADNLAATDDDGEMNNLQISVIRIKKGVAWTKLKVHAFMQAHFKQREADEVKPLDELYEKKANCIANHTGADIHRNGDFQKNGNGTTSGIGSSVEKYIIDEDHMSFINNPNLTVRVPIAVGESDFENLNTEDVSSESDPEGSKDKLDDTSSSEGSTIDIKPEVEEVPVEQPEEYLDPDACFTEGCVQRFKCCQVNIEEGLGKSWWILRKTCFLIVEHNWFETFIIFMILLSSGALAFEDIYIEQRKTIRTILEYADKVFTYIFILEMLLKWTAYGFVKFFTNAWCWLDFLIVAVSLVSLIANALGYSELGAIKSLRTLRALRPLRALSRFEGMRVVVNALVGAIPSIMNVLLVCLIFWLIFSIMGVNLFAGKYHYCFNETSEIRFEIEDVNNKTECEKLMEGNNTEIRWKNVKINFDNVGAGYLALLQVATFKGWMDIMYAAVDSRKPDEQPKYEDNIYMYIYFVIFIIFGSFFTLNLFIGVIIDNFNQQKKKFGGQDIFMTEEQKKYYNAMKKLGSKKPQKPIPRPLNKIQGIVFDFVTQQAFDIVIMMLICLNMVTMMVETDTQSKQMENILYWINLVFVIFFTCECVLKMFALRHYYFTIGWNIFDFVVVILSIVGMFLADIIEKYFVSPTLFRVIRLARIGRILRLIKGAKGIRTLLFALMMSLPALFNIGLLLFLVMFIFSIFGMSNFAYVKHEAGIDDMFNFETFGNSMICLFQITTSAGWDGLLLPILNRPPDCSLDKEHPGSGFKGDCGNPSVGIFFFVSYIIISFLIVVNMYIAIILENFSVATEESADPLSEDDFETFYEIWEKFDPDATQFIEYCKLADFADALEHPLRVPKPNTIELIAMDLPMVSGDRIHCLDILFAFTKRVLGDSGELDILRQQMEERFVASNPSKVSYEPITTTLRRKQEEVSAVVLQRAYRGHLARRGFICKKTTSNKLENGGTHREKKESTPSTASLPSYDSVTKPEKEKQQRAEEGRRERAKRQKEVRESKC
# assay.overview: Inhibition of full length human Nav1.6 channel expressed in HEK cells co-expressing human sodium channel subunit beta1 at holding potential -35 mV by automated voltage clamp analysis
reported.property: pIC50
# log scale: pIC50 equals minus log10 of the concentration in mol/L

GET pIC50 where system = Sodium channel protein type 8 subunit alpha (Homo sapiens, UniProt Q9UQD0) and item = Nc1noc2ccc(-c3cc(Cl)ccc3Oc3cc(F)c(S(=O)(=O)Nc4ncns4)cc3F)cc12
7.96

GET pIC50 where system = Sodium channel protein type 8 subunit alpha (Homo sapiens, UniProt Q9UQD0) and item = Nc1nc2cc(-c3cc(Cl)ccc3Oc3cc(F)c(S(=O)(=O)Nc4ncns4)cc3F)ccc2[nH]1
9.10

----------
Please go through the items and note down their pIC50.
# assay.target: Sodium channel protein type 9 subunit alpha (Rattus norvegicus, UniProt O08562)
# Sequence (O08562 whole entry): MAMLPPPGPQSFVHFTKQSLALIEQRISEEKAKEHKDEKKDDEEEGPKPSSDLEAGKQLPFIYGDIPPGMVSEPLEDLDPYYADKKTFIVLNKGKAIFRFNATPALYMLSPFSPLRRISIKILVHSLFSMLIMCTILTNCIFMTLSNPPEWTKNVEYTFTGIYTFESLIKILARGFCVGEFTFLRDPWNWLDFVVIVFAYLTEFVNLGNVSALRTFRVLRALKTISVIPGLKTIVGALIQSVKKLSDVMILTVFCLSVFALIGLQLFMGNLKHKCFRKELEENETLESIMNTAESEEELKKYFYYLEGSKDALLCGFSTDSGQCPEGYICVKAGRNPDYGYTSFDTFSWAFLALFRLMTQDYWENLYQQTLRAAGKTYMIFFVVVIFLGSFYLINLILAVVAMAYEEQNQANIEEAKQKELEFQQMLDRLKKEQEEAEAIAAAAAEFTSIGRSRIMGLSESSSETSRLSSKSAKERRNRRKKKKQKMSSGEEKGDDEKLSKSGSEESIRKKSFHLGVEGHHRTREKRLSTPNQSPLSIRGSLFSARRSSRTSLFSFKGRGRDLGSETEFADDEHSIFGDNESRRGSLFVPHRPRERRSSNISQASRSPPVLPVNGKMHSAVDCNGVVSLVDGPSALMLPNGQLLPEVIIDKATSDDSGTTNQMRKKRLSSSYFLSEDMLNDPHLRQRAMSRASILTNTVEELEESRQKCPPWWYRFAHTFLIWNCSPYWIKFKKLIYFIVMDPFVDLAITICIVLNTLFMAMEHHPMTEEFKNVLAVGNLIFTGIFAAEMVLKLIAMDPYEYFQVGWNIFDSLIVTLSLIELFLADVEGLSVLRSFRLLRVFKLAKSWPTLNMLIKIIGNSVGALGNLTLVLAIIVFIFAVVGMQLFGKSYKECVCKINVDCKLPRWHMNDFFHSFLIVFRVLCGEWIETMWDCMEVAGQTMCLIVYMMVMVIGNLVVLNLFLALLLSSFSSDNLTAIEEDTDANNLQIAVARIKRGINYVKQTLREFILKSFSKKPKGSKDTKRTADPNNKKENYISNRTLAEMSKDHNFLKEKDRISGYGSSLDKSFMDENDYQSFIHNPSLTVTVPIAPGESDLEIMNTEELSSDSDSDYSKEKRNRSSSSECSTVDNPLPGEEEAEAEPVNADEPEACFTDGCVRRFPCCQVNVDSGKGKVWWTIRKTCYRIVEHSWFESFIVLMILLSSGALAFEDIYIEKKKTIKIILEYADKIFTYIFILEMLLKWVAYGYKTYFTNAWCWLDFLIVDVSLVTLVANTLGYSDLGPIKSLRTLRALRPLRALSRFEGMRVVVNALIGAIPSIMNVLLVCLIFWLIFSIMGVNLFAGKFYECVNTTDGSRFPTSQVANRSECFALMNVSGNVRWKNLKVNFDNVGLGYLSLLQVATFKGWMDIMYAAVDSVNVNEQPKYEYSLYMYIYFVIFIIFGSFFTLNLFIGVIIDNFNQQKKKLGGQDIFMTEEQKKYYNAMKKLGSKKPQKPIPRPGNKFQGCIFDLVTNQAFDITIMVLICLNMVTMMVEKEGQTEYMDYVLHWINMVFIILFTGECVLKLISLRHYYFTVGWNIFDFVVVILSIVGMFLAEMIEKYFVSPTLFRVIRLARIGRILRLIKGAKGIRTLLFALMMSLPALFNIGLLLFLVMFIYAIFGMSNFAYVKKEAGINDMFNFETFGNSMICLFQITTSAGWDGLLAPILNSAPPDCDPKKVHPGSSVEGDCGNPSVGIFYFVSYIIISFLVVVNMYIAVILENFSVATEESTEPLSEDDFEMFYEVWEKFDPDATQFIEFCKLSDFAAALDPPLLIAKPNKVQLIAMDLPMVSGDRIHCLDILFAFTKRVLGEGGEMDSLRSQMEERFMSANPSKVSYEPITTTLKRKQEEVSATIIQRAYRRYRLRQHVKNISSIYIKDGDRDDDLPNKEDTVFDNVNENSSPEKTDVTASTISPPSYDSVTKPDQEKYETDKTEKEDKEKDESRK
# assay.overview: Inhibition of rat Nav1.7 channel by automated voltage clamp analysis
# log scale: pIC50 equals minus log10 of the concentration in mol/L

Give pIC50 for O=S(=O)(Nc1ncns1)c1cc(F)c(Oc2ccc(Cl)cc2-c2ccc3nccnc3c2)cc1F
6.13

Give pIC50 for Nc1noc2ccc(-c3cc(Cl)ccc3Oc3cc(F)c(S(=O)(=O)Nc4ncns4)cc3F)cc12
7.59

----------
# assay.overview: Half life in Sprague-Dawley rat at 1 mg/kg, iv
# Format: ADME, organism-based
# condition.label: in vivo
reported.property: half-life (min)
Numeric answer only, unit min assumed.

Give half-life for Nc1noc2ccc(-c3cc(Cl)ccc3Oc3cc(F)c(S(=O)(=O)Nc4ncns4)cc3F)cc12
7.8

----------
# assay.overview: Plasma clearance in Sprague-Dawley rat at 1 mg/kg, iv
# Type: ADME, organism-based
reported.property: clearance (L/h/kg)
Numeric answer only, unit L/h/kg assumed.

Give clearance for Nc1noc2ccc(-c3cc(Cl)ccc3Oc3cc(F)c(S(=O)(=O)Nc4ncns4)cc3F)cc12
10.6

----------
# assay.target: Sodium channel protein type 1 subunit alpha (Homo sapiens)
# assay.overview: Inhibition of full length human Nav1.1 channel expressed in HEK cells co-expressing human sodium channel subunit beta1 at holding potential -40 mV by automated voltage clamp analysis
Please go through the items and note down their pIC50.
# log scale: pIC50 equals minus log10 of the concentration in mol/L

Give pIC50 for Nc1noc2ccc(-c3cc(Cl)ccc3Oc3cc(F)c(S(=O)(=O)Nc4ncns4)cc3F)cc12
5.51

Give pIC50 for Nc1nc2cc(-c3cc(Cl)ccc3Oc3cc(F)c(S(=O)(=O)Nc4ncns4)cc3F)ccc2[nH]1
5.20

----------
# assay.target: Sodium channel protein type 9 subunit alpha (Homo sapiens, UniProt Q15858)
# assay.overview: Inhibition of full length human Nav1.7 channel expressed in HEK cells co-expressing human sodium channel subunit beta3 at -150 mV by manual voltage clamp analysis
# Assay type: cell-based, HEK293
reported.property: IC50 (pM)
Numeric answer only, unit pM assumed.

GET IC50 where system = Sodium channel protein type 9 subunit alpha (Homo sapiens, UniProt Q15858) and item = Nc1noc2ccc(-c3cc(Cl)ccc3Oc3cc(F)c(S(=O)(=O)Nc4ncns4)cc3F)cc12
400

----------
# assay.overview: Plasma protein binding in rat at 10 uM incubated for 20 hrs by HPLC-MS/MS analysis
# Assay type: ADME, cell-free
# condition.label: read-out: PPB (converted)
reported.property: fraction unbound at 20 h, 10 µM
Please give the numeric answer without any surrounding text.

Give fraction unbound at 20 h, 10 µM for Nc1noc2ccc(-c3cc(Cl)ccc3Oc3cc(F)c(S(=O)(=O)Nc4ncns4)cc3F)cc12
0.011

----------
# assay.target: Cytochrome P450 1A2 (Homo sapiens)
reported.property: IC50

Give IC50 for Nc1noc2ccc(-c3cc(Cl)ccc3Oc3cc(F)c(S(=O)(=O)Nc4ncns4)cc3F)cc12
> 9 µM

----------
# assay.overview: Kinetic solubility of compound at pH 7.2
# Type: physicochemical
# condition.label: buffer, read-out: Kinetic_solubility
reported.property: solubility kinetic (µM)
Numeric answer only, unit µM assumed.

Give solubility kinetic for Nc1noc2ccc(-c3cc(Cl)ccc3Oc3cc(F)c(S(=O)(=O)Nc4ncns4)cc3F)cc12
121

----------
# assay.target: Cytochrome P450 2C9 (Homo sapiens, UniProt P11712)
# Sequence (P11712 whole entry): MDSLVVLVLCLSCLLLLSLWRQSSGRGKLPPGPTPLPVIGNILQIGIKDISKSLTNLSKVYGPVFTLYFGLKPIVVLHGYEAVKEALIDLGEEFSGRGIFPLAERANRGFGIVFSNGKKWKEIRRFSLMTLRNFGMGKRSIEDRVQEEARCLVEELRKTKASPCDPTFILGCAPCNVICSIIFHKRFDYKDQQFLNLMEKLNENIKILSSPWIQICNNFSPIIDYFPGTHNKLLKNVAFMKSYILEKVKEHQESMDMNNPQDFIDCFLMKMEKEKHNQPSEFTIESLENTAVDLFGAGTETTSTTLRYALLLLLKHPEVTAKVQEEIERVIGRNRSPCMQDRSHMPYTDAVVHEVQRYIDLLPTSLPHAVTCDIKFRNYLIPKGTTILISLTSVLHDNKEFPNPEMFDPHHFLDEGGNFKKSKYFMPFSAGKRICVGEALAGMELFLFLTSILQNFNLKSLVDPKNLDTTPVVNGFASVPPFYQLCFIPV
# assay.overview: Inhibition of CYP2C9 in human liver microsomes using warfarin as substrate after 30 mins by LC/MS/MS analysis
# Assay type: ADME
reported.property: pIC50
# log scale: pIC50 equals minus log10 of the concentration in mol/L

GET pIC50 where system = Cytochrome P450 2C9 (Homo sapiens, UniProt P11712) and item = Nc1noc2ccc(-c3cc(Cl)ccc3Oc3cc(F)c(S(=O)(=O)Nc4ncccn4)cc3F)cc12
6.24

----------
# assay.target: Sodium channel protein type 5 subunit alpha (Homo sapiens, UniProt Q14524)
# assay.overview: Inhibition of full length human Nav1.5 channel expressed in HEK cells co-expressing human sodium channel subunit beta1 at holding potential -60 mV by automated voltage clamp analysis
Please go through the items and note down their IC50.
Numeric answer only, unit µM assumed.

Give IC50 for CNc1noc2ccc(-c3cc(Cl)ccc3Oc3cc(F)c(S(=O)(=O)Nc4ncns4)cc3F)cc12
0.23

Give IC50 for Nc1noc2ccc(-c3cc(Cl)ccc3Oc3cc(F)c(S(=O)(=O)Nc4ncns4)cc3F)cc12
1.38

----------
# assay.overview: Cmax in Sprague-Dawley rat at 20 mg/kg, ip
# Type: ADME, organism-based
# Set-up: dose 20 mg/kg, route intraperitoneal
# condition.label: in vivo
reported.property: Cmax (µM)
Numeric answer only, unit µM assumed.

Give Cmax for Nc1noc2ccc(-c3cc(Cl)ccc3Oc3cc(F)c(S(=O)(=O)Nc4ncns4)cc3F)cc12
5.3

----------
# assay.overview: Tmax in Sprague-Dawley rat at 20 mg/kg, ip
# Type: ADME, organism-based
# condition.label: in vivo
reported.property: Tmax (min)
Numeric answer only, unit min assumed.

Give Tmax for Nc1noc2ccc(-c3cc(Cl)ccc3Oc3cc(F)c(S(=O)(=O)Nc4ncns4)cc3F)cc12
3.6

----------
# assay.overview: Ratio of drug uptake in brain to plasma in Sprague-Dawley rat at 20 mg/kg, ip by UHPLC analysis
# Assay type: ADME, organism-based
# condition.label: read-out: BPR
reported.property: Kp
Please give the numeric answer without any surrounding text.

Give Kp for Nc1noc2ccc(-c3cc(Cl)ccc3Oc3cc(F)c(S(=O)(=O)Nc4ncns4)cc3F)cc12
0.019

----------
# assay.target: Sodium channel protein type 3 subunit alpha (Homo sapiens)
# assay.overview: Inhibition of full length human Nav1.3 channel expressed in HEK cells co-expressing human sodium channel subunit beta1 at holding potential -50 mV by automated voltage clamp analysis
reported.property: IC50 (µM)
Numeric answer only, unit µM assumed.

GET IC50 where system = Sodium channel protein type 3 subunit alpha (Homo sapiens) and item = Nc1nc2cc(-c3cc(Cl)ccc3Oc3cc(F)c(S(=O)(=O)Nc4ncns4)cc3F)ccc2[nH]1
9.33

----------
# assay.target: Cytochrome P450 3A4 (Homo sapiens)
# Sequence (P08684 whole entry): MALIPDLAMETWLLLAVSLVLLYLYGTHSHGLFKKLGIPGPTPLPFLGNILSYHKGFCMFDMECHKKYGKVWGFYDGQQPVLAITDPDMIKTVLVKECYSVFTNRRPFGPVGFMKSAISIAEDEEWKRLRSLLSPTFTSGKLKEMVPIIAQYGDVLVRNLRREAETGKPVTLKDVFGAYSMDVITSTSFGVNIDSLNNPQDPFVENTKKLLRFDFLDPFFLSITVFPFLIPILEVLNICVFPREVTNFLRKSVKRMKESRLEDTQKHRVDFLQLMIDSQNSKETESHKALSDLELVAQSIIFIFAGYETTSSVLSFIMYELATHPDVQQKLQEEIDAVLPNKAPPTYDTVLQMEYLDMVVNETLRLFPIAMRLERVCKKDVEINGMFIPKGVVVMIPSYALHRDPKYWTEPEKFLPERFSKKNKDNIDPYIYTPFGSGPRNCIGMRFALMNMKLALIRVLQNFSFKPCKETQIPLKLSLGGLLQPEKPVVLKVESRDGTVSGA
reported.property: IC50

Give IC50 for Nc1noc2ccc(-c3cc(Cl)ccc3Oc3cc(F)c(S(=O)(=O)Nc4ncccn4)cc3F)cc12
> 10 µM

----------
# assay.overview: AUC (0 to infinity) in Sprague-Dawley rat at 1 mg/kg, iv
# Format: ADME, organism-based
# Set-up: dose 1 mg/kg, time infinity, route intravenous
# condition.label: in vivo
reported.property: AUC(0-inf) (µM·h)
Numeric answer only, unit µM·h assumed.

Give AUC(0-inf) for Nc1noc2ccc(-c3cc(Cl)ccc3Oc3cc(F)c(S(=O)(=O)Nc4ncns4)cc3F)cc12
0.18

----------
# assay.overview: Cmax in Sprague-Dawley rat at 1 mg/kg, iv
# Type: ADME, organism-based
# Parameters: dose 1 mg/kg, route intravenous
# condition.label: in vivo
reported.property: Cmax

Give Cmax for Nc1noc2ccc(-c3cc(Cl)ccc3Oc3cc(F)c(S(=O)(=O)Nc4ncns4)cc3F)cc12
2900 nM
